- System: murine gastric organoid diffuse (Cdh1 fl/fl; Apc fl/fl)
- assay_text: IC50 (viability, PrestoBlue) (log10 nM)
- measurement_setup: exposure time: 72 h
Catalogue of compounds with associated IC50 (log10 nM)
reported_metric: IC50 (log10 nM)

- COc1cc(Nc2ncc(F)c(Nc3ccc4c(n3)N(COP(=O)(O)O)C(=O)C(C)(C)O4)n2)cc(OC)c1OC [R788 disodium hexahydrate]: 2.99
- O=C(/C=C/c1cccc(S(=O)(=O)Nc2ccccc2)c1)NO [Belinostat]: 3.29
- CC(C)Nc1cc(-c2c[nH]c(C(=O)N[C@H](CO)c3cccc(Cl)c3)c2)c(Cl)cn1 [Ulixertinib]: 3.42
- CNC(=O)c1cc(Oc2ccc(NC(=O)Nc3ccc(Cl)c(C(F)(F)F)c3)cc2)ccn1 [Sorafenib]: 3.88

---

- System: murine normal gastric organoid
- assay_text: IC50 (viability, PrestoBlue) (log10 nM)
- measurement_setup: exposure time: 72 h
The molecules listed here are annotated with their IC50 (log10 nM).
reported_metric: IC50 (log10 nM)

* COc1cc(Nc2ncc3c(n2)-c2ccc(Cl)cc2C(c2c(F)cccc2OC)=NC3)ccc1C(=O)O | 2.47
* COc1cc([C@@H]2c3cc4c(cc3[C@@H](O[C@@H]3O[C@@H]5CO[C@@H](C)O[C@H]5[C@H](O)[C@H]3O)[C@H]3COC(=O)[C@H]23)OCO4)cc(OC)c1O [Etoposide] | 2.67
* Cn1nccc1Nc1nccc(-c2ccn([C@H](CO)c3ccc(Cl)c(F)c3)c(=O)c2)n1 [Ravoxertinib] | 3.18

---

- Test system: murine gastric organoid WNT-activated (Apc fl/fl; Tp53 R172H)
- assay_text: IC50 (viability, PrestoBlue) (log10 nM)
- measurement_setup: exposure time: 72 h
Structures can show the parent of a compound that is named as a salt.
Param label: returns yes when IC50 (log10 nM) < 3, returns no otherwise, including exact equality.

* Cn1nnc2c(C(N)=O)ncn2c1=O [Temozolomide] | no
* COc1cc2nccc(Oc3ccc(NC(=O)Nc4cc(C)on4)c(Cl)c3)c2cc1OC [Tivozanib] | no
* CC(=O)Nc1cccc(-n2c(=O)n(C3CC3)c(=O)c3c(Nc4ccc(I)cc4F)n(C)c(=O)c(C)c32)c1 [Trametinib] | yes
* COc1ccc(-c2cc3c(C)nc(N)nc3n([C@H]3CC[C@H](OCCO)CC3)c2=O)cn1 | yes
* Cn1cncc1[C@@](N)(c1ccc(Cl)cc1)c1ccc2c(c1)c(-c1cccc(Cl)c1)cc(=O)n2C [Tipifarnib] | no
* Cc1cc(Nc2ncc(Cl)c(Nc3ccccc3S(=O)(=O)C(C)C)n2)c(OC(C)C)cc1C1CCNCC1 [LDK378] | yes
* Cc1sc2c(c1C)C(c1ccc(Cl)cc1)=N[C@@H](CC(=O)Nc1ccc(O)cc1)c1nnc(C)n1-2 [OTX-015] | yes
* CC[C@]1(O)C[C@@H]2CN(CCc3c([nH]c4ccccc34)[C@@](C(=O)OC)(c3cc4c(cc3OC)N(C)[C@H]3[C@@](O)(C(=O)OC)[C@H](OC(C)=O)[C@]5(CC)C=CCN6CC[C@]43[C@@H]65)C2)C1 [Vinblastine sulfate] | yes
* COc1cc(OC)c(/C=C/S(=O)(=O)Cc2ccc(OC)c(NCC(=O)O)c2)c(OC)c1 [Rigosertib sodium] | yes
* CC(=O)Nc1ccc(C(=O)Nc2ccccc2N)cc1 [Tacedinaline] | no
* CNC(=O)c1ccccc1Sc1ccc2c(/C=C/c3ccccn3)n[nH]c2c1 [Axitinib] | yes
* Nc1nc(Cl)nc2c1ncn2[C@@H]1O[C@H](CO)[C@@H](O)[C@@H]1F [Clofarabine] | no
